experiment: in vitro; type: cell-based; details: African green monkey
measurement_label: CC50

For orientation, consider the following solved cases.
compound="CCCCS(=O)(=O)Nc1ccc2[nH]cc(C)c2c1 [Compound 4]" value_measured="> 190 µM"
compound="CCCCS(=O)(=O)Nc1ccc2[nH]c(C#N)c(C)c2c1 [Compound 9]" value_measured="170 µM"

Now for the compound whose CC50 we want.
IN: Give me measured CC50, please, for this compound: Cc1n[nH]c2ccc(NS(=O)(=O)CCCCF)cc12 [JSF-3285]
OUT: 170 µM

====

test: physchem; format: physicochemical; settings: pH 7.4, aqueous buffer, kinetic from dmso stock
measurement_label: solubility kinetic at 4 h (µM)
Express your answer in µM, writing the number without its unit.

chemical_string=CCCCS(=O)(=O)Nc1ccc2[nH]c(C(=O)OCC)c(C)c2c1 value_measured=0.895
chemical_string=CCCCS(=O)(=O)Nc1ccc2[nH]c(C(N)=O)c(C)c2c1 value_measured=45.5

API: the following record is the query input.
IN: Read the entry `CCCCCS(=O)(=O)Nc1ccc2[nH]nc(C)c2c1` and write its reported solubility kinetic at 4 h.
OUT: 476

// provenance: paper PMC7245553
